assay system: Nuclear receptor ROR-alpha (Homo sapiens)
Sequence (P35398 whole entry, the tested form may be a part): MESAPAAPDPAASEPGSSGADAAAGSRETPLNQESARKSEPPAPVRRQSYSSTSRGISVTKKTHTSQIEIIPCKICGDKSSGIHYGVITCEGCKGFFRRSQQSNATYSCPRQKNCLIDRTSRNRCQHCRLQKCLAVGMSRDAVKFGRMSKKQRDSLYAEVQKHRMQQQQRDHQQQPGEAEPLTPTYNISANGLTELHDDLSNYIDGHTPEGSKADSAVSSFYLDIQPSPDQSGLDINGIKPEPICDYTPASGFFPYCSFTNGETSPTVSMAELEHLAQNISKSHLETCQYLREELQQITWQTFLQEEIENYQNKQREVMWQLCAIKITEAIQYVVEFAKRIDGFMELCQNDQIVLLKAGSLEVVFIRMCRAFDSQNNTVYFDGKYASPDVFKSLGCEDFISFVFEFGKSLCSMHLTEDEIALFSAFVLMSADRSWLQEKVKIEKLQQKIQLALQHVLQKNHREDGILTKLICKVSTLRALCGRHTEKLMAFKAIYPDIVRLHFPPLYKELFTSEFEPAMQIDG
method summary: Inhibition of GAL4-fused RORalpha (unknown origin)
pEC50: −log10 of the molar value.
value type: pEC50

1. C[C@H]1C[C@H](C(=O)O)CC[C@H]1C(=O)N1CC[C@@]2(S(=O)(=O)c3ccccc3)c3cc(F)c(C(F)(C(F)(F)F)C(F)(F)F)cc3CC[C@@H]12 :: < 5.00

---

Each entry below lists one item and its recorded concentration at 24 h value.
method summary: Drug concentration in Balb/c mouse at 10 mg/kg, po measured after 24 hrs
Assay type: ADME, organism-based
reported conditions: in vivo, read-out: Drug uptake
value type: concentration at 24 h

1. N#Cc1cc2c(cc1C(F)(C(F)(F)F)C(F)(F)F)CC[C@H]1N(C(=O)[C@H]3CC[C@H](C(=O)O)CC3)CC[C@@]21S(=O)(=O)c1ccc(F)cc1 :: 1.6 µM
2. O=C(O)[C@H]1CC[C@H](C(=O)N2CC[C@@]3(S(=O)(=O)c4ccc(F)cc4)c4ccc(C(F)(C(F)(F)F)C(F)(F)F)cc4CC[C@@H]23)CC1 :: 0.4 µM
